Tested on: T-47D breast
PROCEDURE DETAILS: NCI tumour cell line growth inhibition, 48 h
QUANTITY: TGI (µM)
Reply numerically in µM, unit not repeated.

CCCc1cc(=O)oc2c(C(=O)CC(C)C)c(O)c(CC=C(C)C)c(O)c12 ... 40.3

Dear colleague, I am looking for the recorded TGI of the following molecule: CCCCc1ccc(Nc2nc3c(ncn3C3OC(COC(C)=O)C(OC(C)=O)C3OC(C)=O)c(=O)[nH]2)cc1 (stereo not given)
30

---

Test system: IGROV1 ovarian
PROCEDURE DETAILS: NCI tumour cell line growth inhibition, 48 h
Below, each of the compounds is paired with its reported TGI value.

COc1ccc2c(=O)c([Se]c3coc4cc(OC)ccc4c3=O)coc2c1 ... > 100 µM
C=CCCCCOC1C=CC(OC(C)=O)C(COC(C)=O)O1 (stereo unspecified) ... > 100 µM
CN(C)c1cccc(-c2cc(=O)c3ccccc3[nH]2)c1 ... > 100 µM
CCOC(=O)/C(C(=S)NC)=C(/N)N1CCCC1 ... > 100 µM
COc1ccc(/C=C/c2cc(OC)c(O[Si](C)(C)C(C)(C)C)c(OC)c2)cc1 ... > 100 µM
COc1ccc2c(c1)/C(=C(\C(Cl)=C(\Cl)N1CCCCC1)[N+](=O)[O-])N2 ... > 100 µM
O=C1CCc2c3c(c4c([nH]c5ccccc54)c2CC1)C(=O)NC3=O ... 13.7 µM
CC(/C=C/c1ncccc1OCCCCCC(=O)O)=N\NC1=NCCN1 ... > 100 µM
N#Cc1ccc(Oc2nccc(-c3c(-c4ccc(F)cc4)ncn3C3CCNCC3)n2)cc1 ... > 25 µM
COc1cc(CNC(=O)/C=C/C=C/c2ccc3c(c2)OCO3)ccc1OCc1cn(-c2ccc(Cl)c(Cl)c2)nn1 ... 3.75 µM

Dear colleague, I am looking for the recorded TGI of the following compound: CCCCC1Cc2cc(O)ccc2-c2n1c1cc(O)ccc1[n+]2C (stereo unspecified) (tested in a mixture with another compound)
> 83.8 µM

Similarly, CC(C)=CC/C=C(/C)[C@H]1CC[C@]2(C)[C@@H]1CC[C@@H]1[C@@]3(C)CCC(=O)NC(C)(C)[C@@H]3CC[C@]12C ?
26.5 µM

Similarly, COc1cc2c(cc1OCCCCNC(=O)c1cc3ccccc3[nH]1)N=CC1CCCN1C2=O (stereo unspecified) ?
> 100 µM

Similarly, COc1ccc2nc(-c3ccc(OC(=O)N(C)C)cc3)cn2c1 ?
> 100 µM

These entries and their values trace back to PubChem BioAssay (NCI).
